Tested on: clinical strains of K. pneumoniae
Assay: MIC, microdilution, clinical strains
Format: cell-based
Details: Klebsiella pneumoniae strain 3, Muller Hinton broth-cation adjusted, 0.02% BSA, 0.2% acetic acid
Experimental: Minimum inhibition concetrations (MICs) were determined against Escherichia coli (ATCC 25922), Staphylococcus aureus (ATCC 25923), Klebsiella pneumoniae (ATCC 10031) and Pseudomonas aeruginosa (ATCC 27853). […] The susceptibility of these microorganisms to Chain peptides were determined using micro broth dilution assay. […] Concentrations of Chain peptides and reference antibiotics ranged from 0.125 to 128 μg/ml and the MICs were recorded as the lowest concentration with no visual growth of bacteria. […]
Where a SMILES comes first, the peptide text is derived from it. [ ]: non-standard residue; d: D form.
Reported Minimum inhibitory concentration values follow for various molecules
Answer with a bare number; do not write a unit.

{"columns": ["molecule", "target or test system", "Minimum inhibitory concentration"],
 "data": [
  ["CC(C)C[C@@H](NC(=O)[C@@H](CCCCN)NC(=O)[C@@H](CCCCN)NC(=O)[C@@H](Cc1ccccc1)NC(=O)[C@@H](CC(C)C)NC(=O)[C@@H](Cc1c[nH]c2ccccc12)NC(=O)[C@@H](CCCNC(=N)N)NC(=O)[C@@H](Cc1c[nH]c2ccccc12)NC(=O)[C@@H](CCCCN)NC(=O)[C@@H](CCCNC(=N)N)NC(=O)[C@H](N)CCCCN)C(=O)O [Chain310D] (H-[dK][dR][dK][dW][dR][dW][dL][dF][dK][dK][dL]-OH)", "clinical strains of K. pneumoniae", 128]
]}

Alright, here's another molecule for you.
Q) Quote Minimum inhibitory concentration reported for CC[C@@H](C)[C@@H](NC(=O)[C@@H](Cc1c[nH]c2ccccc12)NC(=O)[C@H](N)CCCCN)C(=O)N[C@@H](C(=O)N[C@H](Cc1c[nH]c2ccccc12)C(=O)N[C@H](CCCNC(=N)N)C(=O)N[C@H](Cc1c[nH]c2ccccc12)C(=O)N[C@H](CCCNC(=N)N)C(=O)N[C@H](Cc1ccccc1)C(=O)N[C@H](CCCCN)C(=O)N[C@H](CCCNC(=N)N)C(=O)O)C(C)C [Chain201D] (H-[dK][dW][dI][dV][dW][dR][dW][dR][dF][dK][dR]-OH) please.
A) 4
